Kd for Somatostatin receptor type 1 (Homo sapiens) - collated from the literature.
ATTRIBUTE_MEASURED: Kd (µM)

Take a look at these entries with their results.
>>> assay_value("CC(Cc1ccc2c(c1)OCO2)CN1C[C@H]2CCCC[C@H]2[C@H](C(=O)N2CCN(c3ccc([N+](=O)[O-])cc3)CC2)C1 (mixture of isomers)")
6.17
>>> assay_value("C[C@@H](Cc1ccc2ocnc2c1)CN1C[C@@H]2CCCC[C@@H]2[C@H](C(=O)N2CCN(c3ccc(F)c(F)c3)CC2)C1")
1.62
>>> assay_value("CC(Cc1ccc2c(c1)OCO2)CN1C[C@@H](C(=O)N2CCN(c3ccc([N+](=O)[O-])cc3)CC2)C[C@@H]2CCCC[C@@H]21 (mixture of isomers)")
2.45
>>> assay_value("Cc1cn2cc(C[C@H](C)CN3C[C@@H]4CCCC[C@@H]4[C@H](C(=O)N4CCN(c5ccc(F)c(F)c5)CC4)C3)ccc2n1")
0.0398
>>> assay_value("COC(=O)c1cc(CC(C)CN2CC3CCCCC3C(C(=O)N3CCN(c4ccc([N+](=O)[O-])cc4)CC3)C2)cc(C(=O)OC)c1 (racemic)")
1
>>> assay_value("C[C@H](c1ccccc1)N1CC(=O)N[C@@H](Cc2ccccc2)C(=O)N[C@H](Cc2c[nH]c3ccccc23)C(=O)N[C@@H](CCCCN)C(=O)N[C@@H]([C@@H](C)O)C(=O)N[C@@H](Cc2ccccc2)C1=O")
3.55

P = CC(Cc1ccc2c(c1)OCO2)CN1CCCC(C(=O)N2CCN(c3ccc([N+](=O)[O-])cc3)CC2)C1 (racemic)
Q = CC(Cc1ccc2c(c1)OCO2)CN1C[C@H]2CCCC[C@H]2[C@@H](C(=O)N2CCN(c3ccc([N+](=O)[O-])cc3)CC2)C1 (mixture of isomers)
Incoming: Hi team, can someone confirm which has the larger Kd: P or Q ? Thanks. Your answer should be the label of the entry you select.
Outgoing: Q

a = CN[C@H](Cc1ccccc1)C(=O)N[C@H]1CSSC[C@@H](C(=O)N[C@H](C(N)=O)[C@@H](C)O)NC(=O)[C@H]([C@@H](C)O)NC(=O)[C@H](CCCCN)NC(=O)[C@@H](Cc2c[nH]c3ccccc23)NC(=O)[C@H](Cc2ccccc2)NC1=O
b = CCNc1ccc(C[C@H](C)CN2C[C@@H]3CCCC[C@@H]3[C@H](C(=O)N3CCN(c4ccc(F)c(F)c4)CC3)C2)cn1
c = CN(CCC(=O)N1CCN(c2ccc(F)c(F)c2)CC1)CCC1c2ccccc2-c2ccccc21.Cl
Incoming: Let's sort these by Kd, smallest first. Go ahead? A complete answer lists every label in the requested sequence.
Outgoing: c, a, b
(c: 0.00537 µM, a: 0.316 µM, b: 1.91 µM)
